Values from patent US9145415B2

molecular target: human FLT3 protein (FLT3 (WT)) (Homo sapiens); construct: human FLT3 protein (intracellular region, 564 to 993 aa); GST; purchased Carna Biosciences; host or cells: baculovirus expression system; test: FLT3 inhibition test (FLT3 enzyme inhibition, time-resolved fluorescence of substrate peptide phosphorylation); format: biochemical; conditions: FLT3 (WT); read-out: FLT3 (WT) enzyme inhibition activity
pIC50: −log10 of the molar value.
Value kind: pIC50

Worked cases, pIC50 given:
CCCNc1nc(Nc2ccc3[nH]ncc3c2)ncc1C#CCCCNC(=O)[C@H](C)N(C)C(=O)/C=C/CN(C)C [Compound 21-55] :: > 8.00
CCCNc1nc(Nc2ccc3c(c2)c(OC)nn3C)ncc1C#CCCCNC(=O)[C@@H]1CCCN1C(=O)/C=C/CN(C)C [Compound 22-30] :: > 8.00

Query :: pIC50 for CCCNc1nc(Nc2cnc3[nH]nc(OC)c3c2)ncc1C#CCCCNC(=O)[C@@H]1CCCN1C(=O)/C=C/CN(C)C [Compound 22-57] ?
Result :: > 8.00

----------
biological target: human FLT3 protein (FLT3 (WT)) (Homo sapiens, UniProt P36888); construct: human FLT3 protein (intracellular region, 564 to 993 aa); GST; purchased Carna Biosciences; host or cells: baculovirus expression system; experiment: FLT3 inhibition test (FLT3 enzyme inhibition, time-resolved fluorescence of substrate peptide phosphorylation); type: biochemical; details: GST-fused human FLT3 (564 to 993 aa), ATP 50 μM; read-out: FLT3 (WT) enzyme inhibition activity
Each item that follows carries a reported IC50.

Worked cases, IC50 given:
CCCNc1nc(Nc2cccc(F)c2)ncc1C#CCCCNC(=O)[C@@H]1C[C@H](OC)CN1C(=O)/C=C/CN(C)C :: < 10 nM
CCCNc1nc(Nc2ccc(C(N)=O)cc2)ncc1C(=O)Nc1cccc(NC2CCN(C(=O)/C=C/CN(C)C)C2)c1 (stereo not shown) :: < 10 nM

Query :: I'm curious: which IC50 was measured for CCCNc1nc(Nc2ccc(OC(F)(F)F)cc2)ncc1C#CCCCNC(=O)[C@H](C)N(C)C(=O)/C=C/CN(C)C tested on human FLT3 protein (FLT3 (WT)) (Homo sapiens, UniProt P36888)?
Result :: 10 to 100 nM

Query :: I'm curious: which IC50 was measured for COCCCNc1nc(Nc2ccc3[nH]ncc3c2)ncc1C#CCCCNC(=O)[C@H](C)N(C)C(=O)/C=C/CN(C)C tested on human FLT3 protein (FLT3 (WT)) (Homo sapiens, UniProt P36888)?
Result :: < 10 nM

----------
Target: human FLT3 protein (FLT3 (WT)) (Homo sapiens)
Construct: human FLT3 protein (intracellular region, 564 to 993 aa); GST; purchased Carna Biosciences; host or cells: baculovirus expression system
Sequence (P36888 564-993): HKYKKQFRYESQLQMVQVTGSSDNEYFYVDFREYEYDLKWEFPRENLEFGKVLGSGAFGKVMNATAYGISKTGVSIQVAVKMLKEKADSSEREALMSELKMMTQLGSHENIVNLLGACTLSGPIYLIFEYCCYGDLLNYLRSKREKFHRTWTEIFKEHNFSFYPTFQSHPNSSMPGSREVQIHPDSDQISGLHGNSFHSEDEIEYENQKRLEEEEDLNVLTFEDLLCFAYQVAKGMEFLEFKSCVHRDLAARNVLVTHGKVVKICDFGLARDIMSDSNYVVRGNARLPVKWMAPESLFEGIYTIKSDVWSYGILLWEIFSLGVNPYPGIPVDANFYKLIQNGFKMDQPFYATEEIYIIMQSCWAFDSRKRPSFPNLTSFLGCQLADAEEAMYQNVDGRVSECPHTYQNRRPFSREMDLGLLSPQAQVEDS
Test: FLT3 inhibition test (FLT3 enzyme inhibition, time-resolved fluorescence of substrate peptide phosphorylation)
Type: biochemical
Details: GST-fused human FLT3 (564 to 993 aa), ATP 50 μM; read-out: FLT3 (WT) enzyme inhibition activity
Experimental: The FLT3 inhibition test was performed for the compounds of the present invention by the method described below. A reaction mixture in a volume of 9 μL containing the FLT3 protein and a test compound of a predetermined concentration (1.2 μg of FLT3, 100 mM HEPES, 10 mM MgCl2, 25 mM NaCl, 0.01% BSA, 1 mM DTT, pH 7.5) was left standing at 25° C. for 15 minutes. […]
Value kind: IC50

CCCNc1nc(NCCc2ccncc2)ncc1C(=O)Nc1cccc(NC(=O)CCNC(=O)/C=C/CN(C)C)c1 [Compound 2-10] :: < 10 nM
CCCNc1nc(Nc2ccc(C(N)=O)cc2)ncc1C(=O)Nc1cccc(NC(=O)[C@H](C)N(C)C(=O)/C=C/CBr)c1 [Compound 3-7] :: < 10 nM
C[C@@H](C(=O)Nc1cccc(C#Cc2cnc(Nc3ccc(C#N)cc3)nc2NC2CC2)n1)N(C)C(=O)/C=C/CN(C)C [Compound 8-18] :: < 10 nM
CCCNc1nc(Nc2ccnc(F)c2)ncc1C#C[C@@H]1CCC[C@H](NC(=O)[C@H](C)N(C)C(=O)/C=C/CN(C)C)C1 [Compound 14-1] :: < 10 nM

Query :: IC50 for CC[C@@H](C(=O)NCCCC#Cc1cnc(Nc2ccc(F)nc2)nc1Nc1cccc(F)c1)N(C)C(=O)/C=C/CN(C)C [Compound 10-32] ?
Result :: < 10 nM

Query :: IC50 for CCCNc1nc(Nc2ccc(C(N)=O)cc2)ncc1C#Cc1ccc2nc(CNC(=O)/C=C/CN(C)C)[nH]c2c1 [Compound 8-9] ?
Result :: < 10 nM

Query :: IC50 for CCCNc1nc(Nc2cccc(F)c2)ncc1C#CCCCNC(=O)[C@@H]1CCN1C(=O)/C=C/CN(C)C [Compound 7-51] ?
Result :: < 10 nM
